SYSTEM TESTED: T1, IL13RA2 Protein, Human, Recombinant (ECD)-His tag (human, UniProt Q14627 27-343)
T1 construct: extracellular domain; also called human recombinant protein extracellular domain; human IL13Ra2-His6
T1 sequence: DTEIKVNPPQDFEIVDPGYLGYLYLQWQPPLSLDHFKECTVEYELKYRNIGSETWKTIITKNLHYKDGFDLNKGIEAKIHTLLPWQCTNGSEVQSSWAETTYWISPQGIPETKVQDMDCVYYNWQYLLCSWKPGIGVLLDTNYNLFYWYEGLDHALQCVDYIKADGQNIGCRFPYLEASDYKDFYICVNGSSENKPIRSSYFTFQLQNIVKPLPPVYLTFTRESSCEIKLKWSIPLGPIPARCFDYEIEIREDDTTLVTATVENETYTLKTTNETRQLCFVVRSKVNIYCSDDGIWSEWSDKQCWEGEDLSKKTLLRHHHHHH
PROTOCOL DETAILS: BLI; biotinylated VHH captured on streptavidin biosensor, antigen 1 uM in solution
# key: entry, value: koff
# unit: s⁻¹ | format: bare number

VH53f3 (VHH, biotinylated (site not stated), Expressed in E. coli and 6xHIS purified; also called VH53f3 Biotin; Anti-IL13Rα2 VH53) VHH: QVQLQESGGGLVQPGGSLRLSCEVSGSISSINRMAWYRQVPGKEREMVAQITYGDTIKYYGSAKGRFTISKDSAKNAVYLQMNSLKPEDTAVYRCNIVGVLTTGHYENSFWGQGTQVTVSS: 0.000118

Give me measured koff, please, for this binder: VH43f2 (VHH, biotinylated (site not stated), Expressed in E. coli and 6xHIS purified; also called VH43f2-Biotin; Anti-IL13Rα2 VH43) VHH: QVQLQESGGGLVQPGGSLRLSCTASGSIRGIGYMAWGRQGPGKPRELIATINSAGDTNYAESVKGRFTVSRDNAENTLYLQMNNLKSEDTAVYYCNARPGLQSYWGQGTQVTVSS
0.000941
